tested on: MCF7 breast; experiment: NCI-60 one-dose screen, 48 h; settings: 10 µM unless noted
The panel holds about 83,000 compounds, 20% with a hit somewhere; the sample as a whole holds those more often. Calls of active or inactive are those of the source. The calls were made as follows: active = growth percent below 10; inactive = the rest.
// one of active, inactive, no free text

Example cases with answers are listed next.
compound | class.assignment
O=C(NNC(=S)Nc1ccccc1)c1ccc(Nc2ncnc3c2cnn3-c2cccc(Br)c2)cc1 | inactive
C#CC[C@@H]1C[C@]2(C)[C@H]3CC=C4[C@H]5[C@@H](C)[C@H](C)CC[C@]5(C(=O)NCCCCN)CC[C@@]4(C)[C@]3(C)CC[C@H]2C(C)(C)[C@H]1OC(C)=O | inactive
CCc1oc2ccccc2c1C(=O)c1cc(I)c(O)c(I)c1 | inactive

Lookup: Dear all, I need the recorded test outcome for `O=C1/C(=C\c2cccn2C(=O)c2ccccc2)c2ccccc2N1c1c(Cl)cccc1Cl` , thank you.
Found: inactive

Lookup: Dear all, I need the recorded test outcome for COc1ccc(C2C3CCc4ccccc4C3=NN2C(=O)c2cc(OC)c(OC)c(OC)c2)cc1O (centres undefined) , thank you.
Found: inactive

Lookup: Dear all, I need the recorded test outcome for `COc1ccc2[nH]c(C(=O)OCc3ccc4cccc(O)c4n3)cc2c1` , thank you.
Found: active

Lookup: Dear all, I need the recorded test outcome for `Cc1ccc(O)c(Cc2ccccc2)c1` , thank you.
Found: inactive

Lookup: Dear all, I need the recorded test outcome for COc1ccc(-c2nsc3c2NC(=O)CC3c2cccc(F)c2)cc1 (centres undefined) , thank you.
Found: inactive

Lookup: Dear all, I need the recorded test outcome for `O=C(c1ccccc1)N(CCCCl)C(=O)N(CCCCl)C(=O)c1ccccc1` , thank you.
Found: inactive

----------
The entries below are paired with their reported growth.
test system: K-562 leukemia; experiment: NCI-60 one-dose screen, 48 h (100 = growth as untreated, 0 = no growth, -100 = all killed); conditions: 10 µM unless noted
The panel holds about 83,000 compounds, 20% with a hit somewhere; the sample as a whole holds those more often.
Dear colleague, please return just the value in %, with no unit written.

Sample answers from the record:
compound | growth (%)
c1ccc(C2=Nc3ccccc3SC2)cc1 | 124
O=C(OCc1ccc2c(Br)cc(Br)c(O)c2n1)c1cc2ccccc2[nH]1 | 1.14
[Ag].[Ag].[NH-]S(=O)(=O)c1ccc(N=Nc2cc(N=Nc3ccc(S([NH-])(=O)=O)cc3)c3c(NC(=O)C(Cl)Cl)cccc3c2OC(=O)C(Cl)Cl)cc1.[c-]1nccs1.[c-]1nccs1 | 83.8

Lookup: # query: growth of entry CCOC(=O)C1=C(C)NC(SCc2nnc(-c3ccc(Cl)cc3)o2)=NC1c1ccc(Br)cc1 (configuration not stated)
Found: 60.7

Lookup: # query: growth of entry `C=C(C)c1ccc(/C=N/NC(N)=S)cc1`
Found: 89

Lookup: # query: growth of entry `O=[N+]([O-])c1ccccc1CN1CCCCC1`
Found: 136

Lookup: # query: growth of entry `COc1ccc(/C=C(/C(=O)N2CCN(c3ccccc3)CC2)c2cc(OC)c(OC)c(OC)c2)cc1O`
Found: 6.23

----------
The entries below are paired with their reported growth.
tested on: HOP-62 NSCLC; assay: NCI-60 one-dose screen, 48 h (100 = growth as untreated, 0 = no growth, -100 = all killed); conditions: 10 µM unless noted
About 83,000 compounds went through this panel and 20% of them were active in at least one assay; those are over-represented in the sample as a whole.
Dear colleague, please return just the value in %, with no unit written.

molecule | growth, %
CC(=O)c1nn(-c2ccccc2)/c(=N\N=C\c2coc3ccc(F)cc3c2=O)s1 | 85.6

Lookup: # query: growth of entry `O=C1c2ccccc2C(=O)c2c1oc1ccc3ccccc3c21`
Found: 108

Lookup: # query: growth of entry `CC(=O)N[C@@H](CCC(N)=O)C(=O)O`
Found: 102

Lookup: # query: growth of entry `Cc1nc2ccc(Nc3nc(NCCN4CCOCC4)nc(Nc4ccc(F)cc4)n3)cc2n1Cc1ccccc1`
Found: 47.8

Lookup: # query: growth of entry `Cc1cc(C)c([O-])c(CN(C)CCN(C)Cc2cc(C)cc(C)c2[O-])c1.O=C([O-])c1cccc(C(=O)[O-])n1.[Ti+4]`
Found: 12.5

Lookup: # query: growth of entry `COc1ccc2cc(-c3nc(C)c(C(C)=O)c(-c4ccc(C)cc4)n3)ccc2c1`
Found: 105
